The reported measurements were obtained from patent US11236129B2.

Assign IC50 to each entry below.
Target: IL-17RA/IL17RC dimerization induced by IL-17A (Homo sapiens, UniProt Q16552)
Sequence (Q16552 24-155): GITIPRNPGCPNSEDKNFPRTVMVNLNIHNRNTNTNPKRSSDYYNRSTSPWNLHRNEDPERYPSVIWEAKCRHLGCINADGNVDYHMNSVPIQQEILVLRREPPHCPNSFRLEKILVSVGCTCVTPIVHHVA
Assay: IL-17RA/IL17RC dimerization assay in response to IL-17A (PathHunter Cytokine Receptor Assay)
Format: cell-based
Settings: IL-17A at EC80; read-out: IC50 in IL-17RA/IL7RC dimerization assay
Residues, ends and D or L forms follow the SMILES beside them.

IC50 of CC(=O)N[C@H](C(=O)N[C@@H](Cc1c[nH]cn1)C(=O)N[C@@H](Cc1ccccc1)C(=O)N[C@@H](CCC(N)=O)C(=O)N[C@@H](Cc1ccccc1)C(=O)N1CCC[C@H]1C(=O)N[C@@H](C)C(=O)N[C@@H](CC(=O)O)C(=O)N[C@@H](CC(C)C)C(=O)N[C@@H](Cc1c[nH]c2ccccc12)C(=O)N[C@@H](CCC(=O)O)C(=O)N[C@@H](Cc1ccccc1)C(=O)N[C@H](C(=O)N[C@@H](CCCNC(=N)N)C(=O)N[C@@H](CCCNC(=N)N)C(N)=O)C(C)C)C(C)C [SEQ ID NO: 134] (Ac-VHFQFPADLWEFVRR-NH2) on IL-17RA/IL17RC dimerization induced by IL-17A (Homo sapiens, UniProt Q16552)?
< 0.5 µM

Param item: CC[C@H](C)[C@H](NC(C)=O)C(=O)N[C@@H](Cc1c[nH]cn1)C(=O)N1CCC[C@H]1C(=O)N[C@H](C(=O)N[C@H](C(=O)N1CCC[C@H]1C(=O)N[C@@H](C)C(=O)N[C@@H](CC(=O)O)C(=O)N[C@@H](CC(C)C)C(=O)N[C@@H](Cc1c[nH]c2ccccc12)C(=O)N[C@@H](CC(=O)O)C(=O)N[C@@H](Cc1c[nH]c2ccccc12)C(=O)N[C@H](C(=O)N[C@@H](CC(N)=O)C(=O)N[C@@H](CCCCN)C(N)=O)[C@@H](C)CC)[C@@H](C)CC)[C@@H](C)O [SEQ ID NO: 170] (Ac-IHPTIPADLWDWINK-NH2)
< 10 µM

Same again, this time with CC[C@H](C)[C@H](NC(C)=O)C(=O)N[C@@H](Cc1c[nH]cn1)C(=O)N[C@H](C(=O)N[C@H](C(=O)N[C@H](C(=O)N1CCC[C@H]1C(=O)N[C@@H](CC(N)=O)C(=O)N[C@@H](CC(=O)O)C(=O)N[C@@H](CC(C)C)C(=O)N[C@@H](Cc1c[nH]c2ccccc12)C(=O)N[C@@H](CC(=O)O)C(=O)N[C@@H](Cc1c[nH]c2ccccc12)C(=O)N[C@H](C(=O)N[C@@H](CC(N)=O)C(=O)N[C@@H](CCCCN)C(N)=O)[C@@H](C)CC)[C@@H](C)CC)[C@@H](C)O)C(C)C [SEQ ID NO: 197] (Ac-IHVTIPNDLWDWINK-NH2)
< 10 µM

Same lookup for CC[C@H](C)[C@H](NC(C)=O)C(=O)N[C@@H](CCCNC(=N)N)C(=O)N[C@H](C(=O)N[C@H](C(=O)N[C@H](C(=O)N1CCC[C@H]1C(=O)N[C@@H](C)C(=O)N[C@@H](CC(=O)O)C(=O)N[C@@H](CC(C)C)C(=O)N[C@@H](Cc1c[nH]c2ccccc12)C(=O)N[C@@H](CC(=O)O)C(=O)N[C@@H](Cc1c[nH]c2ccccc12)C(=O)N[C@H](C(=O)N[C@@H](CC(N)=O)C(=O)N[C@@H](CCCCN)C(N)=O)[C@@H](C)CC)[C@@H](C)CC)[C@@H](C)O)C(C)C [SEQ ID NO: 162] (Ac-IRVTIPADLWDWINK-NH2) , please.
< 10 µM
